- subjectOfTest: HDAC5 (Homo sapiens, UniProt Q9UQL6)
- Sequence (Q9UQL6 whole entry, canonical isoform): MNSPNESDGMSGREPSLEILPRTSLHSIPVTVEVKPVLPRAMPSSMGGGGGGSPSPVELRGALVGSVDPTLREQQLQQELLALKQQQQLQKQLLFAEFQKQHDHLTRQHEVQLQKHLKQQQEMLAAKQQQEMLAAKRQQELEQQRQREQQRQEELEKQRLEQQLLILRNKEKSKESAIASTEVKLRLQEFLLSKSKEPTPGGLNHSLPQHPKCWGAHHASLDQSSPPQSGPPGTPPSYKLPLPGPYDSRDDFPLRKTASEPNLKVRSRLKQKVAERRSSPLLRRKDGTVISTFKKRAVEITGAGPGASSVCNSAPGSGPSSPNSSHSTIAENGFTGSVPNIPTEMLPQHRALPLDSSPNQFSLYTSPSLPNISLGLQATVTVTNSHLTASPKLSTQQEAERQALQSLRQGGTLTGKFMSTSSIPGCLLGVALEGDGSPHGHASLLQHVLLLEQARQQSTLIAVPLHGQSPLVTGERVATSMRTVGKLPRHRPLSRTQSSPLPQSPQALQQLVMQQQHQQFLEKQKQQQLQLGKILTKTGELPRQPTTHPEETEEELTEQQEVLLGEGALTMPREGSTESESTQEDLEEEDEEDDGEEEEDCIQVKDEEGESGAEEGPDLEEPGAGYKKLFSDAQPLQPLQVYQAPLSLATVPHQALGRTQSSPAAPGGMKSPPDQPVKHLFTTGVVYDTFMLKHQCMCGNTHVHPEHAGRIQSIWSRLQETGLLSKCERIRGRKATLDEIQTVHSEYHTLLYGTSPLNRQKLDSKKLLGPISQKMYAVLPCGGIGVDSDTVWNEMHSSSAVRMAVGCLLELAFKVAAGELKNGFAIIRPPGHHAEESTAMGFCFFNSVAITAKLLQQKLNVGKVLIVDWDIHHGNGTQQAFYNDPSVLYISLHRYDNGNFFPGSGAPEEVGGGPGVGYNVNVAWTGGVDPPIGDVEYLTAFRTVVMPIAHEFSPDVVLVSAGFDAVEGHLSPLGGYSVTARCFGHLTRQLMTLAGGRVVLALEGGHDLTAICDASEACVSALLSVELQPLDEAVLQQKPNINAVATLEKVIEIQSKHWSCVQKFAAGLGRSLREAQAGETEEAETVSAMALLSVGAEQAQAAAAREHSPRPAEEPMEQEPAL
- assayRemarks: Fluorometric HDAC activity assay, recombinant isoform
observedProperty: IC50

So the reported IC50 for COc1ccc(S(=O)(=O)N2CCc3cc(C=CC(=O)NO)cc(N)c32)cc1 , on HDAC5 (Homo sapiens, UniProt Q9UQL6), turned out to be > 5 µM

* * *

- subjectOfTest: HDAC7 (Homo sapiens, UniProt Q8WUI4)
- Sequence (Q8WUI4 1-952): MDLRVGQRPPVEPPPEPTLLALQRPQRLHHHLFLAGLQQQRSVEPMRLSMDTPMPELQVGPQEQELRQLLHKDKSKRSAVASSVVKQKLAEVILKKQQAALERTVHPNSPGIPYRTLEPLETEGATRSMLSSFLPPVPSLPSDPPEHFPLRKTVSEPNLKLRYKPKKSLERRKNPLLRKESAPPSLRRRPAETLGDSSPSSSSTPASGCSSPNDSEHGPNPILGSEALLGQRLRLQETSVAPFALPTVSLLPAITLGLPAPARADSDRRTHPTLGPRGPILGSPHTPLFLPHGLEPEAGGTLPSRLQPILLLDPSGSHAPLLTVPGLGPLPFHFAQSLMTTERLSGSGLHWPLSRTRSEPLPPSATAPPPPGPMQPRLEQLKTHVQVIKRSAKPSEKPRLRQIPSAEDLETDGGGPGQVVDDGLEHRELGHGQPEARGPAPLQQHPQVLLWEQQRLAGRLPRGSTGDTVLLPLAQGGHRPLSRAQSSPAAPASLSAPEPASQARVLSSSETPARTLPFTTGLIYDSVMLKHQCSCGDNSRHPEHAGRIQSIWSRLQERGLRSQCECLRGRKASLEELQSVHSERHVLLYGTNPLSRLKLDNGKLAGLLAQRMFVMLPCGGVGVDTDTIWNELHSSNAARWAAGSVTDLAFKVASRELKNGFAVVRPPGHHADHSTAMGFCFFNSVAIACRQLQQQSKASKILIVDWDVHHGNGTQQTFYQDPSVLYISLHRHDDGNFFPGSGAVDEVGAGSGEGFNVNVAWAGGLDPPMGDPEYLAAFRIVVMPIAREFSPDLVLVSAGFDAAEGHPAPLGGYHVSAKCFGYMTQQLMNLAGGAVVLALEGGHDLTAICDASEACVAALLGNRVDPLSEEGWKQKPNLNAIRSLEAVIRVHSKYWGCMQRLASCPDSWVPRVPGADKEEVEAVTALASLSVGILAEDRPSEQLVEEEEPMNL
- assayRemarks: Fluorometric HDAC activity assay, recombinant isoform
observedProperty: IC50

# compound COc1ccc(S(=O)(=O)N2CCc3cc(C=CC(=O)NO)cc(N)c32)cc1 ; its IC50 = > 10 µM
